Where do the numbers come from? From patent US8012975B2.

# System: DU-145
# assay: Cytotoxic activity (M) panel, Prostate DU-145
# stated-conditions: Homo sapiens, DU-145, read-out: CYTOTOXIC ACTIVITY (M) DU-145
List of IC50 values.
Give the value in M but do not write M after it.

Below, each entry is followed by its recorded IC50 result.
>  <molecule>
CCCC(=O)OC[C@H]1c2c(c(OC(C)=O)c(C)c3c2OCO3)CC2[C@H]3c4c(cc(C)c(OC)c4O)C[C@@H]([C@H](O)N21)N3C (stereo partly drawn) [drawing 236]

>  <reported-property>
IC50

>  <result-number>
1.17e-08

$$$$
>  <molecule>
COc1c(C)cc2c(c1O)[C@@H]1C3Cc4c(OC(C)=O)c(C)c5c(c4[C@H](CNC(=O)[C@H](C)NC(=O)C(F)(F)F)N3[C@@H](O)[C@H](C2)N1C)OCO5 (stereo partly drawn) [drawing 212]

>  <reported-property>
IC50

>  <result-number>
1.83e-07

$$$$

Pending molecule:
Ask | Given the molecule COc1c(C)cc2c(c1O)[C@@H]1C3Cc4c(OC(C)=O)c(C)c5c(c4[C@H](CNC(=O)/C=C/c4cccc(C(F)(F)F)c4)N3[C@@H](O)[C@H](C2)N1C)OCO5 (stereo partly drawn) [drawing 211] , write its reported IC50.
Reply | 5.73e-10

====

# assay: in vitro
# stated-conditions: African green monkey
reported-property: pIC50
Reminder that pIC50 means the negative base-10 logarithm of the concentration expressed in mol/L.

// known answers, use as guide
>  <compound>
COCOc1c(OC)c(C)cc2c1[C@@H]1C3CC4=C(C(=O)C(OC)=C(C)C4=O)[C@H](CNC(C)=O)N3[C@@H](C#N)[C@H](C2)N1C (stereo partly drawn)

>  <pIC50>
6.66

$$$$
>  <compound>
C=CCOc1c(C)c2c(c3c1CC1[C@H]4c5c(cc(C)c(OC)c5O)C[C@@H]([C@H](C#N)N1[C@H]3CNC(=O)OCC(Cl)(Cl)Cl)N4C)OCO2 (stereo partly drawn)

>  <pIC50>
7.85

$$$$

Could you now look at the following compound, please?
Ask | Quote pIC50 reported for COC1=C(C)C(=O)C2=C(C1=O)[C@H](CNC(=O)C(C)N=CSNc1ccccc1)N1C(C2)[C@H]2c3c(cc(C)c(OC)c3O)C[C@@H]([C@@H]1C#N)N2C (stereo partly drawn) please.
Reply | 7.74

====

# Tested on: RAMOS
reported-property: IC50 (pM)
The response must be a number in pM with no trailing unit.

Ask | Answer with the recorded IC50 of COc1c(C)cc2c(c1O)[C@@H]1C3Cc4c(OC(C)=O)c(C)c5c(c4[C@H](CNC(=O)CCc4ccccc4)N3[C@@H](O)[C@H](C2)N1C)OCO5 (stereo partly shown) [drawing 221] only.
Reply | 0.777

====

Listing: pIC50 of selected molecules
# assay: in vitro
# stated-conditions: African green monkey
Keep in mind that pIC50 stands for -log10 of concentration in molar terms.

Ask | Report pIC50, nothing else, for this molecule: C=CCOc1c(C)c2c(c3c1CC1[C@H]4c5c(cc(C)c(OC)c5OCOC)C[C@@H]([C@H](C#N)N1[C@H]3COC(=O)CCc1ccccc1)N4C)OCO2 (stereo partly drawn)
Reply | 6.15

Ask | Note pIC50 for the molecule shown: COC1=C(C)C(=O)C2=C(C1=O)[C@H](CNC(=O)C(C)N)N1C(C2)[C@H]2c3c(cc(C)c(OC)c3O)C[C@@H]([C@@H]1C#N)N2C (stereo partly drawn)
Reply | 7.64

Ask | Consider the molecule CCCCCC(=O)N[C@@H](C)C(=O)NC[C@H]1c2c(c(OC(C)=O)c(C)c3c2OCO3)CC2[C@H]3c4c(cc(C)c(OC)c4O)C[C@@H]([C@H](O)N21)N3C (stereo partly drawn) and give its recorded pIC50.
Reply | 9.00
